Quick reference: pKi of the listed items.
Target protein (sequence): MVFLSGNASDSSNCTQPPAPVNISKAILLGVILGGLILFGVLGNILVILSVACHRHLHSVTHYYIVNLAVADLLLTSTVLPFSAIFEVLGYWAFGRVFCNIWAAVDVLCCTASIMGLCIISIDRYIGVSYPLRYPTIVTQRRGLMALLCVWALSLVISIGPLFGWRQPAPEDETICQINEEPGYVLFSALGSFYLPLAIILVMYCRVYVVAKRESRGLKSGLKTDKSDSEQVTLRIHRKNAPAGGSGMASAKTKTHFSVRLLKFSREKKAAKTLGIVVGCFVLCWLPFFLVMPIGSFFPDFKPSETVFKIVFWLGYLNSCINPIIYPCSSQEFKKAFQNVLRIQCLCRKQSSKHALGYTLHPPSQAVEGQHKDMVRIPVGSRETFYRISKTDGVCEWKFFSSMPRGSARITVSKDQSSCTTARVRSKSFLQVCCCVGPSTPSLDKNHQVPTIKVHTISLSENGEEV
pKi: −log10 of the molar value.
measure: pKi

[[record]]
molecule = "CCCN(CCCNC(=O)c1ccc(-c2cccs2)cc1)CCNC(=O)c1cc(Br)cc(OC)c1OC [20a]"
measure = "pKi"
recordedmeasurement = 5.66

[[record]]
molecule = "CCN(CCCNC(=O)c1ccc(-c2ccsc2)cc1)CCNC(=O)c1cc(Br)cc(OC)c1OC [21g]"
measure = "pKi"
recordedmeasurement = 5.67


----------
Here's what we have: log10 Ki numbers for Serotonin 5-HT2A (Homo sapiens, UniProt P28223).
measure: log10 Ki (log10 of the value in nM)

[[record]]
compound = "CCN(CCCNC(=O)c1ccc2ccccc2c1)CCNC(=O)c1cc(Br)cc(OC)c1OC [21a]"
targetentity = "Serotonin 5-HT2A (Homo sapiens, UniProt P28223)"
recordedmeasurement = 3.09

[[record]]
compound = "CCN(CCCNC(=O)c1ccc(-c2ccncc2)cc1)CCNC(=O)c1cc(Br)cc(OC)c1OC [21c]"
targetentity = "Serotonin 5-HT2A (Homo sapiens, UniProt P28223)"
recordedmeasurement = 2.86

[[record]]
compound = "CCN(CCCNC(=O)c1cc2ccccc2[nH]1)CCNC(=O)c1cc(Br)cc(OC)c1OC [21d]"
targetentity = "Serotonin 5-HT2A (Homo sapiens, UniProt P28223)"
recordedmeasurement = 2.93

[[record]]
compound = "CCN(CCCNC(=O)c1cn2ccccc2n1)CCNC(=O)c1cc(Br)cc(OC)c1OC [21e]"
targetentity = "Serotonin 5-HT2A (Homo sapiens, UniProt P28223)"
recordedmeasurement = 3.12

[[record]]
compound = "CCN(CCCNC(=O)c1ccc(-c2ccsc2)cc1)CCNC(=O)c1cc(Br)cc(OC)c1OC [21g]"
targetentity = "Serotonin 5-HT2A (Homo sapiens, UniProt P28223)"
recordedmeasurement = 2.44

[[record]]
compound = "CCN(CCCNC(=O)c1ccc(-c2cccs2)cc1)CCNC(=O)c1cc(Br)cc(OC)c1OC"
targetentity = "Serotonin 5-HT2A (Homo sapiens, UniProt P28223)"
recordedmeasurement = 2.35

[[record]]
compound = "CCN(CCCNC(=O)c1ccsc1)CCNC(=O)c1cc(Br)cc(OC)c1OC [21i]"
targetentity = "Serotonin 5-HT2A (Homo sapiens, UniProt P28223)"
recordedmeasurement = 3.14

[[record]]
compound = "CCN(CCCNC(=O)c1cc2ccccc2n1C)CCNC(=O)c1cc(Br)cc(OC)c1OC [21j]"
targetentity = "Serotonin 5-HT2A (Homo sapiens, UniProt P28223)"
recordedmeasurement = 3.50

[[record]]
compound = "CCCN(CCCNC(=O)c1ccc(-c2cccs2)cc1)CCNC(=O)c1cc(Br)cc(OC)c1OC [20a]"
targetentity = "Serotonin 5-HT2A (Homo sapiens, UniProt P28223)"
recordedmeasurement = 2.79

